- Test system: NH3 or NH2OH oxidation in N. europaea cells
- test_method_notes: Nitrosomonas europaea ammonia vs. hydroxylamine oxidation assay
- Assay type: cell-based
- condition_notes: 1 mM NH2OH as N-source; compounds 50 μM; NO2- after 30 min
readout_name: Nitrification from NH2OH (% compared to DMSO) (%)

1) CN(Cc1c(F)cccc1Cl)CN1CCOC1=S: 80
2) Cc1c[nH]nc1C [Example C1, 3,4-dimethylpyrazole, reference compound]: 56
3) CN(Cc1c(Cl)nc2sccn12)CN1CCSC1=S: 81
4) CN(Cc1nc2ccccc2s1)CN1CCOC1=S: 77

###

Quick reference for pIC50 among some compounds
- Test system: Nitrosomonas europaea
- test_method_notes: Nitrification inhibition assay with Nitrosomonas europaea (nitrite level after 24 h)
- Type: cell-based
- condition_notes: Nitrosomonas europaea; 8-point dose response, 2 to 100 μM; read-out: IC50
pIC50: −log10 of the molar value.
readout_name: pIC50

1. CSc1ncco1: 4.59
2. S=c1[nH]c(-c2ccccc2)cs1: 4.38
3. CN(Cc1nc2ccccc2s1)CN1CCOC1=S: 4.96
4. S=c1[nH]c(C2CCCCC2)cs1: 4.80
5. S=c1[nH]cco1: 5.40
6. Cc1csc(=S)[nH]1: 4.42
7. C=CC1CNC(=S)O1 (stereo not drawn): 5.70

###

- Tested on: Nitrosospira multiformis
- test_method_notes: Nitrification inhibition assay with Nitrosospira multiformis (nitrite level after 24 h)
- Format: cell-based
- condition_notes: Nitrosospira multiformis; tested concentration 50 μM; 24 h; normalized to DMSO (100%) and 100 μM DMP (0%); read-out: Nitrification at tested concentration (0 = maximum activity)
readout_name: activity at 50 µM (%)

1) COc1cc(C(=O)CSC2=NCCS2)cc(OC)c1OC: 13
2) COc1ccccc1Nc1nc(N)nc(CSC2=NCCS2)n1: 42
3) CCn1c(CSC2=NCCS2)nc2cc(F)ccc21: 0
4) Cc1cccc(CSC2=NCCS2)c1: 36

###

- Tested on: Nitrosomonas europaea
- test_method_notes: Nitrification inhibition assay with Nitrosomonas europaea (nitrite level after 24 h)
- Format: cell-based
- condition_notes: Nitrosomonas europaea; tested concentration 100 μM; 24 h; normalized to DMSO (100%) and 100 μM DMP (0%); read-out: Nitrification (%) at tested concentration (0 = maximum activity)
Quick reference for activity at 100 µM among some molecules
readout_name: activity at 100 µM (%)

1) S=c1[nH]c(-c2ccccc2)cs1: 21
2) CN(Cc1c(F)cccc1Cl)CN1CCOC1=S: 0
3) Cc1[nH]c(=S)sc1C: 12
4) CC1(C)COC(=S)N1: 0
5) S=c1[nH]c(C2CC2)cs1: 0
6) CN(Cc1nc2ccccc2s1)CN1CCOC1=S: 0
7) Cc1c[nH]nc1C [Example C1, 3,4-dimethylpyrazole, reference compound]: 0
8) CSc1ncco1: 22
9) S=C1NCCO1: 0
10) CCC1CCCCN1C(=O)CSC1=NCCS1 (centres unmarked): 68
11) S=c1[nH]ccs1: 1
12) S=c1[nH]cc(Cc2ccccc2)s1: 65
13) C=CC1CNC(=S)O1 (centres unmarked): 0
14) CSc1nccs1: 2
15) CN(Cc1c(Cl)nc2sccn12)CN1CCSC1=S: 0
16) CSc1ncc(Br)s1: 68
17) CSc1nc(Br)cs1: 46
18) Cc1csc(=S)[nH]1: 0
19) CCN(CN1CCSC1=S)C1CC1: 0
20) O=C(CSC1=NCCS1)N1CCCC1: 81
21) CC1CSC(=S)N1 (centres unmarked): 0
22) NCCCSc1nccs1: 58
23) Oc1csc(=S)[nH]1: 12
24) S=c1[nH]cco1: 0
25) CC1CSC(SCc2cc(=O)n3ccsc3n2)=N1 (centres unmarked): 0
26) S=c1[nH]c(C2CCCCC2)cs1: 0
27) Cc1csc(SC2CCCCC2)n1: 92
28) COc1cccc(-c2nc(CSC3=NCCS3)cs2)c1OC: 0
29) CSc1nc(N)c(C#N)s1: 0
30) O=C1NCCS1: 47
31) S=C1NC(c2ccccc2)CO1 (centres unmarked): 40
32) CCSc1nc(CC(=O)O)cs1: 62

###

- Tested on: Nitrosomonas europaea
- test_method_notes: Nitrification inhibition assay with Nitrosomonas europaea (nitrite level after 24 h)
- Assay type: cell-based
- condition_notes: Nitrosomonas europaea
- Experimental: The compounds of formula (I) and (II) and (III)/(IV) were tested for their nitrification inhibition effect in two screens, using assays with the nitrifying bacteria N. europaea and N. multiformis. In practice, ammonium and candidate nitrification inhibitors (at 100 μM) were added to a dense bacterial culture in multiwell culture plates and after 24 h of incubation, the nitrite level was measured. […]
Quick reference for IC50 among some compounds
readout_name: IC50

1) CSC1=NCCO1: > 100 µM
2) CC1CNC(=S)S1 (centres unmarked): < 2 µM

###

- System: Nitrosomonas europaea
- test_method_notes: Nitrification inhibition assay with Nitrosomonas europaea (nitrite level after 24 h)
- Type: cell-based
- condition_notes: Nitrosomonas europaea; 8-point dose response, 2 to 100 μM; read-out: IC50
readout_name: IC50 (µM)

1) CSc1nccs1: 12
2) Cc1[nH]c(=S)sc1C: 43
3) S=C1NC(c2ccccc2)CO1 (centres unmarked): 68
4) S=c1[nH]c(C2CC2)cs1: 52
5) CN(Cc1c(F)cccc1Cl)CN1CCOC1=S: 14
6) Cc1c[nH]nc1C [Example C1, 3,4-dimethylpyrazole, reference compound]: 6
7) S=c1[nH]ccs1: 13
8) CC1(C)COC(=S)N1: 7
9) CSc1nc(N)c(C#N)s1: 28
10) Oc1csc(=S)[nH]1: 14

###

- Tested on: Nitrosospira multiformis
- test_method_notes: Nitrification inhibition assay with Nitrosospira multiformis (nitrite level after 24 h)
- Assay type: cell-based
- condition_notes: Nitrosospira multiformis; tested concentration 100 μM; 24 h; normalized to DMSO (100%) and 100 μM DMP (0%); read-out: Nitrification at tested concentration (0 = maximum activity)
readout_name: activity at 100 µM (%)

1. Cc1csc(=S)[nH]1: 0
2. S=c1[nH]ccs1: 0
3. S=c1[nH]c(C2CCCCC2)cs1: 15
4. CN(Cc1nc2ccccc2s1)CN1CCOC1=S: 0
5. CN(Cc1c(F)cccc1Cl)CN1CCOC1=S: 0
6. CSc1ncc(Br)s1: 64
7. CC1(C)COC(=S)N1: 0
8. CC1CSC(SCc2cc(=O)n3ccsc3n2)=N1 (stereo not drawn): 0
9. CCC1CCCCN1C(=O)CSC1=NCCS1 (stereo not drawn): 0
10. CCSc1nc(CC(=O)O)cs1: 77
11. S=c1[nH]cc(Cc2ccccc2)s1: 0
12. S=c1[nH]c(-c2ccccc2)cs1: 0

###

- Test system: Nitrosospira multiformis
- test_method_notes: Nitrification inhibition assay with Nitrosospira multiformis (nitrite level after 24 h)
- Assay type: cell-based
- condition_notes: Nitrosospira multiformis; tested concentration 100 μM; 24 h; normalized to DMSO (100%) and 100 μM DMP (0%); read-out: Nitrification at tested concentration (0 = maximum activity)
Quick rule for you: activity at 100 µM at 10% or higher means yes, lower means no.

1) S=c1[nH]cco1: no
2) O=C1NCCS1: yes
3) CN(Cc1c(Cl)nc2sccn12)CN1CCSC1=S: no
4) CC1CSC(=S)N1 (stereo not drawn): no
5) Cc1c[nH]nc1C [Example C1, 3,4-dimethylpyrazole, reference compound]: no
6) CSc1nccs1: yes
7) S=c1[nH]c(C2CC2)cs1: no
8) Cc1[nH]c(=S)sc1C: no
9) CSc1nc(Br)cs1: yes
10) COc1cccc(-c2nc(CSC3=NCCS3)cs2)c1OC: yes
11) S=C1NCCO1: no
12) CSc1nc(N)c(C#N)s1: yes
13) Oc1csc(=S)[nH]1: yes
14) S=C1NC(c2ccccc2)CO1 (stereo not drawn): yes
15) O=C(CSC1=NCCS1)N1CCCC1: no
16) CCN(CN1CCSC1=S)C1CC1: no
17) O=C(CSC1=NCCS1)NCc1cc(Br)cs1: no
18) C=CC1CNC(=S)O1 (stereo not drawn): no
19) CSc1ncco1: yes
20) NCCCSc1nccs1: no
21) Cc1csc(SC2CCCCC2)n1: yes

###

- System: Merelbeke soil
- test_method_notes: In soil nitrification inhibition assay, Merelbeke soil
- condition_notes: 50 μM; one week of treatment
readout_name: inhibition of ammonium consumption in soil, in words

1. CCC1CCCCN1C(=O)CSC1=NCCS1 (stereo not shown) [Example 9]: significant inhibition
2. O=C(CSC1=NCCS1)N1CCCC1 [Example 10]: significant inhibition
3. CN(Cc1nc2ccccc2s1)CN1CCOC1=S [Example 5]: significant inhibition
